test details: in vivo
experimental context: BALB/c nude, mouse, in vivo, iv, total radioactivity, % ID/g Fat
Measured tissue uptake at 4 h accompanies every entry in the list below.
Dear colleague, please return just the value in %ID/g, with no unit written.

- C[C@@H](O)[C@H](NC(=O)[C@@H]1CSSC[C@H](NC(=O)[C@@H](Cc2ccccc2)NC(=O)[C@H](CCCCNC(=O)COCCOCCNC(=O)c2cccc(NC(=O)N[C@@H]3CN(C4CCCCC4)c4ccccc4N(CC(=O)C(C)(C)C)C3=O)c2)NC(=O)CN2CCN(CC(=O)O)CCN(CC(=O)O)CCN(CC(=O)O)CC2)C(=O)N[C@@H](Cc2ccc(O)cc2)C(=O)N[C@H](Cc2c[nH]c3ccccc23)C(=O)N[C@@H](CCCCN)C(=O)N[C@@H]([C@@H](C)O)C(=O)N1)C(=O)O [^177Lu-I-36, metal not drawn]: 3.32

Next up:
// tissue uptake at 4 h lookup, key: C[C@@H](O)[C@H](NC(=O)[C@@H]1CSSC[C@H](NC(=O)[C@@H](Cc2ccccc2)NC(=O)[C@H](CCCCNC(=O)c2cccc(NC(=O)N[C@@H]3CN(C4CCCCC4)c4ccccc4N(CC(=O)C(C)(C)C)C3=O)c2)NC(=O)COCCOCCNC(=O)CN2CCN(CC(=O)O)CCN(CC(=O)O)CCN(CC(=O)O)CC2)C(=O)N[C@@H](Cc2ccc(O)cc2)C(=O)N[C@H](Cc2c[nH]c3ccccc23)C(=O)N[C@@H](CCCCN)C(=O)N[C@@H]([C@@H](C)O)C(=O)N1)C(=O)O [^177Lu-I-35, metal not drawn] 3.49

====

target: CCK2R (Homo sapiens, UniProt P32239)
Construct: expressed in transfected cells; host or cells: HEK 293T cells
Sequence (P32239 whole entry, species assumed): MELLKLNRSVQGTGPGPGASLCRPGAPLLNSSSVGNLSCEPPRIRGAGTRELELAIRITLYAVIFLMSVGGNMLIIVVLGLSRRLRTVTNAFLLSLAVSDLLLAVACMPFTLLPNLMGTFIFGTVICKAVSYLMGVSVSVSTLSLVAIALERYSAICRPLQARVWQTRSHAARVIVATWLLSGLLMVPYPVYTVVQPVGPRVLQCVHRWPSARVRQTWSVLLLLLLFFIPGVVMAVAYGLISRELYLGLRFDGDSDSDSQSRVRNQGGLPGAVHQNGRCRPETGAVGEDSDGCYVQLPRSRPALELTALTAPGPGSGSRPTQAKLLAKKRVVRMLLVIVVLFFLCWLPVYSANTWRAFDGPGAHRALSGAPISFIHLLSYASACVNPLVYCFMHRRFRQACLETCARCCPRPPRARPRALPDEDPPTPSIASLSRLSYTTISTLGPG
test details: Competitive binding (FACS) on CCK2R-transfected HEK 293T cells with Cy5-labeled Z360
experimental context: HEK 293T transfected, Cy5-labeled Z360 competitive ligand (Table 3)
Measured pIC50 accompanies every entry in the list below.
Note on units: pIC50 is unitless, being -log10 of a concentration expressed in mol/L.

* C[C@@H](O)[C@H](NC(=O)[C@@H]1CSSC[C@H](NC(=O)[C@@H](Cc2ccccc2)NC(=O)COCCOCCNC(=O)[C@H](CCCCNC(=O)CC[C@H](NC(=O)CNC(=O)c2cccc(NC(=O)N[C@@H]3CN(C4CCCCC4)c4ccccc4N(CC(=O)C(C)(C)C)C3=O)c2)C(=O)O)NC(=O)CN2CCN(CC(=O)O)CCN(CC(=O)O)CCN(CC(=O)O)CC2)C(=O)N[C@@H](Cc2ccc(O)cc2)C(=O)N[C@H](Cc2c[nH]c3ccccc23)C(=O)N[C@@H](CCCCN)C(=O)N[C@@H]([C@@H](C)O)C(=O)N1)C(=O)O [Compound I-1] | 8.14

Next up:
Lab note: need pIC50 with CCK2R (Homo sapiens, UniProt P32239) for entry C[C@@H](O)[C@H](NC(=O)[C@@H]1CSSC[C@H](NC(=O)[C@@H](Cc2ccccc2)NC(=O)[C@H](CCCCNC(=O)COCCOCCNC(=O)COCCOCCNC(=O)[C@H](CCC(=O)O)NC(=O)c2cccc(NC(=O)N[C@@H]3CN(C4CCCCC4)c4ccccc4N(CC(=O)C(C)(C)C)C3=O)c2)NC(=O)CN2CCN(CC(=O)O)CCN(CC(=O)O)CCN(CC(=O)O)CC2)C(=O)N[C@@H](Cc2ccc(O)cc2)C(=O)N[C@H](Cc2c[nH]c3ccccc23)C(=O)N[C@@H](CCCCN)C(=O)N[C@@H]([C@@H](C)O)C(=O)N1)C(=O)O [Compound I-29] , please look it up. 9.34
